Where these numbers come from: patent US7015228B2

# Tested on: S. choleraesuis ATCC 10708
# ASSAY_TEXT: Determination of the bactericidal activity (logarithmic reduction in organism count)
# Type: cell-based, Salmonella choleraesuis
# RUN_CONDITIONS: contact for 30 minutes at a substance concentration of 120 μg/mL
RESULT_TYPE: Logarithmic reduction in organism count, S. choleraesuis ATCC 10708

Examples from the recorded data:
CCCCCCCCCCCCNc1cc(C(C)(C)C)nc(-c2ccccn2)n1 | <1 log
NCCCCCCCCCNc1cc(C(F)(F)F)nc(-c2ccccn2)n1 | ≦1 log
CCCCCCCCCCCNc1nc(-c2ccccn2)nc(C)c1CC | ≦1 log
CCCCCCCNc1cc(C(C)C)nc(-c2ccccn2)n1 | <1 log
CCCCCCCCCNc1cc(C(C)C)nc(-c2ccccn2)n1 | <1 log
CCCCCCCCCCCNc1cc(C)nc(-c2ccccn2)n1 | ≦1 log
CCCCCCCNc1cc(C(F)(F)F)nc(-c2ccccn2)n1 | ≦1 log
CCCCCCCCCCCCCCCNc1nc(-c2ccccn2)nc(C)c1CC | <1 log

Per the record, "CCCCCCCCCNc1cc(C(C)(C)C)nc(-c2ccccn2)n1" has Logarithmic reduction in organism count, S. choleraesuis ATCC 10708 of ≦1 log
